- setup conditions: 328.15 K; 102.2 kPa; Liquid; Vibrating tube method
recorded metric: mass density (kg/m3)

compound="C[Si]1(C)O[Si](C)(C)O[Si](C)(C)O[Si](C)(C)O1 [octamethylcyclotetrasiloxane]" experimental_result=915.8
compound="C[Si]1(CCC(F)(F)F)O[Si](C)(CCC(F)(F)F)O[Si](C)(CCC(F)(F)F)O1 (centres undefined)" experimental_result=1210.43
compound="C=C[Si](C)(C)O[Si](C)(C)C=C [1,3-diethenyl-1,1,3,3-tetramethyldisiloxane]" experimental_result=778.04
compound="C=C[Si]1(C)O[Si](C)(C=C)O[Si](C)(C=C)O[Si](C)(C=C)O1 (centres undefined) [2,4,6,8-tetramethyl-2,4,6,8-tetravinylcycloterasiloxane]" experimental_result=952.03
